Here, each record is paired with measured pIC50 data.
# system: BRD4(1) (Homo sapiens)
# Construct: N-terminally His-tagged bromodomains (BRD4(1) at 20 nM and BRD4(2) at 100 nM)
# test-method-notes: Inhibition of tetra-acetylated histone H4 binding to individual BET bromodomains (AlphaScreen)
# applied-conditions: His-tagged BRD4(1) 20 nM, biotinylated tetra-acetylated histone H4 peptide, 30 min incubation; read-out: FRET activity BRD4(1)
pIC50: −log10 of the molar value. Structures can show the parent of a compound that is named as a salt.

Check out these entries, answers already filled in.
C=CC(=O)N(C)c1cnc2nc(N3CCC3)n(Cc3ccccc3)c2c1 [Example 17]; ≥ 6.52
CN(C)C(=O)N(C)c1cnc2nc(N3CCCC3)n(Cc3ccccc3)c2c1 [Example 35]; 5.52 to 6.52
C=CC(=O)N(C)c1cnc2nc(N3CC[C@H](CO)C3)n(Cc3ccccc3)c2c1 [Example 25]; ≥ 6.52

Data request, read-out pIC50, for C=CC(=O)N(C)c1cnc2nc(N3CC=CC3)n(Cc3ccccc3)c2c1 [Example 22, hydrochloride]
≥ 6.52

Ok, now C=CC(=O)N(C)c1cnc2nc(N3CCCCC3)n(Cc3ccccc3)c2c1 [Example 23]
5.52 to 6.52

Ok, now C=CC(=O)N(C)c1cnc2nc(NC3CCOCC3)n(Cc3ccccc3)c2c1 [Example 20]
≥ 6.52

Ok, now C=CC(=O)N(C)c1cnc2c(c1)n(Cc1ccccc1)c(=O)n2C [Example 12]
≥ 6.52

Ok, now Cc1nc2ncc(N(C)C(=O)CCCl)cc2n1Cc1ccccc1 [Example 5]
5.52 to 6.52

Ok, now C=CC(=O)N(CC)c1cnc2c(c1)n(Cc1ccccc1)c(=O)n2C [Example 14]
5.52 to 6.52

Ok, now C[C@H](O)C(=O)N(C)c1cnc2nc(N3CCCC3)n(Cc3ccccc3)c2c1 [Example 34]
≥ 6.52

Ok, now C=CC(=O)N(C)c1cnc2nc(N3CC[C@@H](NC(C)=O)C3)n(Cc3ccccc3)c2c1 [Example 44]
≥ 6.52

Ok, now C=CC(=O)N(C)c1cnc2nc(N3CC[C@H](N(C)C)C3)n(Cc3ccccc3)c2c1 [Example 38]
≥ 6.52

Ok, now C=CC(=O)N(C)c1cnc2nc(N3CC(O)C3)n(Cc3ccccc3)c2c1 [Example 42]
≥ 6.52

Ok, now C=CC(=O)N(C)c1cnc2nc(N3C[C@H]4CN(C)C[C@H]4C3)n(Cc3ccccc3)c2c1 [Example 27]
5.52 to 6.52

====

# system: BRD4(1) (Homo sapiens, UniProt O60885)
# Construct: N-terminally His-tagged bromodomains (BRD4(1) at 20 nM and BRD4(2) at 100 nM)
# test-method-notes: Inhibition of tetra-acetylated histone H4 binding to individual BET bromodomains (AlphaScreen)
# applied-conditions: His-tagged BRD4(1) 20 nM, biotinylated tetra-acetylated histone H4 peptide, 30 min incubation; read-out: FRET activity BRD4(1)
quantity-measured: IC50

Check out these entries, answers already filled in.
CNC(=O)N(C)c1cnc2nc(N3CCCC3)n(Cc3ccccc3)c2c1; 300 to 3000 nM
C=CC(=O)N(C)c1cnc2nc(N(C)C)n(Cc3ccccc3)c2c1; ≤ 300 nM
CCN(C(C)=O)c1cnc2nc(C)n(Cc3ccccc3)c2c1; 300 to 3000 nM
C=CC(=O)N(C)c1cnc2nc(N3CC(N(C)C)C3)n(Cc3ccccc3)c2c1; ≤ 300 nM

Alright, here's another molecule for you.
Data request, read-out IC50, for CCN(C(C)=O)c1cnc2c(c1)n(Cc1ccccc1)c(=O)n2C
300 to 3000 nM
